test_description: APR_HepG2_MitoMembPot_24hr: Apredica 24-hour HepG2 Assay for Mitochondrial Membrane Potential (AID 2282911)
test_parameters: imaging, actives raise or lower the signal
Activity calls are given as the source filed them. How the source made its calls: active means hit-call score of the fitted dose curve at least 0.9, where 1 is the maximum; inactive means score below 0.9.
attribute_measured: AC50

>>> print(df.to_string())
                                    compound    value_measured
 0                                    CN=C=S          inactive
 1                Nc1cnn(-c2ccccc2)c(=O)c1Cl          inactive
 2                   Cc1cc(C)nc(Nc2ccccc2)n1  75.7 µM (active)
 3  O=C1C2CC=CCC2C(=O)N1SC(Cl)(Cl)Cl (stereo not drawn)          inactive
 4  CS(=O)(=O)c1ccc(C(=O)C2C(=O)CCCC2=O)c([N+](=O)[O-])c1          inactive
 5                   CCOc1nc(C(Cl)(Cl)Cl)ns1          inactive
 6            Cc1nc(N(C)C)nc(OC(=O)N(C)C)c1C          inactive
 7  CC1(C)C(C=C(Cl)Cl)C1C(=O)OC(C#N)c1cccc(Oc2ccccc2)c1 (stereo not drawn)          inactive
 8              O=c1n(Cl)c(=O)n(Cl)c(=O)n1Cl          inactive
 9                  CCNC(=O)NC(=O)C(C#N)=NOC          inactive
10                         N#Cc1c(Cl)cccc1Cl          inactive
11  C=CCOC(=O)C(C)(C)OC(=O)c1cc(-n2c(=O)cc(C(F)(F)F)n(C)c2=O)ccc1Cl          inactive
12  CCCC(=NOCC)C1=C(O)CC(CC(C)SCC)CC1=O (stereo not drawn)          inactive
